# system tested: human muscarinic M2 receptor (Homo sapiens)
# Sequence (P08172 whole entry): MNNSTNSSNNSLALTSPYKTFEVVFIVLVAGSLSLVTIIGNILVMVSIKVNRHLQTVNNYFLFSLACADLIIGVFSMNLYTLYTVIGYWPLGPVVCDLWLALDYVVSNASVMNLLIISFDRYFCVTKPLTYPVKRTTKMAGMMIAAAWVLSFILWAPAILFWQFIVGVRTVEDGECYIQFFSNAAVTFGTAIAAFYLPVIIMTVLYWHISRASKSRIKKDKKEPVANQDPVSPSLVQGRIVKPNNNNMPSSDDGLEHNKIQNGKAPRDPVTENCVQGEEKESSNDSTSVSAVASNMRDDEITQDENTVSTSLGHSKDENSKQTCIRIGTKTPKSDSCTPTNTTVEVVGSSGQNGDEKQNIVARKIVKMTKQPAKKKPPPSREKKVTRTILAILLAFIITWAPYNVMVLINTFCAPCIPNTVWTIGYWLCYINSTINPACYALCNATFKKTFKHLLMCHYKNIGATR
# assay procedure: Alphascreen Surefire phospho-ERK1/2 functional assay, M2
# details: CHO, read-out: % Emax cf. ACh, M2, CHO cells stably expressing human M2; relative to ACh
value type: Emax (%)

compound: CCOC(=O)N1CCC2(CC(N3CCC(C4CCCN(CC)C4=O)CC3)C2)C1 (single isomer, unassigned) [4-5 Isomer 2]
unit of measurement: %
Emax: 9

1: CCOC(=O)N1CCC2(CC(N3CCC([C@@H]4CCCN4C(=O)N4CC(F)(F)C4)CC3)C2)C1 (single isomer, unassigned) [2-39 Isomer 2]
2: CCOC(=O)N1CCC2(CC(N3CCC(N4CCC(F)(F)C4)CC3)C2)C1 (single isomer, unassigned) [2-100 Isomer 2]
3: CCOC(=O)N1CCC2(CC(N3CCC(c4nc(Cl)c(Cl)[nH]4)CC3)C2)C1 (single isomer, unassigned) [1-5 Isomer 2]
4: CCOC(=O)N1CCC2(CC(N3CCC(c4ncco4)CC3)C2)C1 (single isomer, unassigned) [1-23 Isomer 2]
Query block: # desc sort on Emax across 4 compounds Note for the reader: the ranking is given by listing the labels in the order requested.
Result block: 3, 4, 2, 1
(3: 19%, 4: 7%, 2: 4%, 1: 1%)

====

# system tested: human muscarinic M1 receptor (Homo sapiens)
# Sequence (P11229 whole entry): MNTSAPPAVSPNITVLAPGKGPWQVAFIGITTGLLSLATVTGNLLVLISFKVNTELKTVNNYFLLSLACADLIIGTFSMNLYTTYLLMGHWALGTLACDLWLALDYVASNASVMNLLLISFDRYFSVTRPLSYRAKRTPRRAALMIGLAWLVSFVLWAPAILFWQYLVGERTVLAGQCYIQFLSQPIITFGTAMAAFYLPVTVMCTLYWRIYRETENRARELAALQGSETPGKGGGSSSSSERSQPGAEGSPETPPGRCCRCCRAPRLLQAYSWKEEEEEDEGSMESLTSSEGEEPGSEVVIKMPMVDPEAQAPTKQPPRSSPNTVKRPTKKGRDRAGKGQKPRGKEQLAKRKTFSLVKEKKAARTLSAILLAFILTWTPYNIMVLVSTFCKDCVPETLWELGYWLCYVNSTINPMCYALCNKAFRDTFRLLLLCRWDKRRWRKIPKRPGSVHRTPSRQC
# assay procedure: Alphascreen Surefire phospho-ERK1/2 functional assay, M1
# Format: cell-based
# details: CHO, read-out: % Emax cf. ACh, M1, CHO cells stably expressing human M1; relative to ACh
value type: Emax (%)

Previously resolved entries follow.
compound: CCOC(=O)N1CCC2(CC(N3CCC(c4nnnn4C)CC3)C2)C1 (single isomer, unassigned) [1-64 Isomer 2]
system tested: human muscarinic M1 receptor (Homo sapiens)
assay result: 40
--
compound: CCOC(=O)N1CCC2(CC(N3CCC([C@@H]4CCCN4CCOC)CC3)C2)C1 (single isomer, unassigned) [2-71 Isomer 2]
system tested: human muscarinic M1 receptor (Homo sapiens)
assay result: 39
--
compound: CCOC(=O)N1CCC2(CC(N3CCC(c4nnnn4CC)CC3)C2)C1 (single isomer, unassigned) [1-65 Isomer 2]
system tested: human muscarinic M1 receptor (Homo sapiens)
assay result: 60
--
compound: CCOC(=O)N1CCC2(CC(N3CCC(N4C(=O)CC[C@H]4CC)CC3)C2)C1 (single isomer, unassigned) [2-114 Isomer 2]
system tested: human muscarinic M1 receptor (Homo sapiens)
assay result: 103

P: CCOC(=O)N1CCC2(CC(N3CCC(C4CCCN4C(=O)NC)CC3)C2)C1 (single isomer, unassigned) [2-16 Isomer 2]
Q: CCOC(=O)N1CCC2(CC(N3CCC([C@@H]4CCCN4c4nnc(C)o4)CC3)C2)C1 (single isomer, unassigned) [2-138 Isomer 2]
Query block: Would you let me know which has the greater Emax value, P or Q ? State the label of the item chosen.
Result block: P
(P: 41%, Q: 17%)

A: CCOC(=O)N1CCC2(CC(N3CCC(c4cc(C)cnc4OC)CC3)C2)C1 (single isomer, unassigned) [3-12 Isomer 2]
B: CCOC(=O)N1CCC2(CC(N3CCC(N4CCCC(F)(F)C4)CC3)C2)C1 (single isomer, unassigned) [4-13 Isomer 2]
C: CCOC(=O)N1CCC2(CC(N3CCC(N4CCCC4c4ccn[nH]4)CC3)C2)C1 (single isomer, unassigned) [2-126 Isomer 2]
D: CCOC(=O)N1CCC2(CC(N3CCC(n4cccc4)CC3)C2)C1 (single isomer, unassigned) [1-32 Isomer 2]
Query block: Order the records, beginning with the lowest Emax and ending with the highest. Kindly provide the labels arranged according to the requested ordering.
Result block: C, A, B, D

FYI, the data here is from patent US9926297B2.
